From: patent US9604988B2

Assign pIC50 to each entry below.
pIC50 field: float, defined as -log10 of concentration (mol/L).

In: Missing value: pIC50, HCK (Homo sapiens, UniProt P08631), entry Nc1ncnc2c1c(-c1ccc(Oc3ccccc3)cc1)cn2[C@H]1CC[C@@H](NCC(=O)O)CC1 . Fill in?
Out: 7.80

In: Missing value: pIC50, HCK (Homo sapiens, UniProt P08631), entry CN1[C@@H]2CC[C@H]1CC(N1CCC(n3cc(-c4ccc(Oc5ccccc5)cc4)c4c(N)ncnc43)CC1)C2 (stereo partly shown) . Fill in?
Out: 9.23

In: Missing value: pIC50, HCK (Homo sapiens, UniProt P08631), entry CN1CCN([C@H]2CC[C@H](n3nc(-c4ccc(NC(=O)c5cc6ccccc6n5C)cc4)c4c(N)ncnc43)CC2)CC1 . Fill in?
Out: 8.80

In: Missing value: pIC50, HCK (Homo sapiens, UniProt P08631), entry CN1CCN([C@H]2CC[C@H](n3nc(-c4ccc(Oc5ccccc5)cc4)c4c(N)ncnc43)CC2)CC1 . Fill in?
Out: 8.52

----------
biological target: hERG (Homo sapiens); assay: hERG inhibition (automated patch-clamp); assay type: cell-based
Sequence (Q12809 whole entry): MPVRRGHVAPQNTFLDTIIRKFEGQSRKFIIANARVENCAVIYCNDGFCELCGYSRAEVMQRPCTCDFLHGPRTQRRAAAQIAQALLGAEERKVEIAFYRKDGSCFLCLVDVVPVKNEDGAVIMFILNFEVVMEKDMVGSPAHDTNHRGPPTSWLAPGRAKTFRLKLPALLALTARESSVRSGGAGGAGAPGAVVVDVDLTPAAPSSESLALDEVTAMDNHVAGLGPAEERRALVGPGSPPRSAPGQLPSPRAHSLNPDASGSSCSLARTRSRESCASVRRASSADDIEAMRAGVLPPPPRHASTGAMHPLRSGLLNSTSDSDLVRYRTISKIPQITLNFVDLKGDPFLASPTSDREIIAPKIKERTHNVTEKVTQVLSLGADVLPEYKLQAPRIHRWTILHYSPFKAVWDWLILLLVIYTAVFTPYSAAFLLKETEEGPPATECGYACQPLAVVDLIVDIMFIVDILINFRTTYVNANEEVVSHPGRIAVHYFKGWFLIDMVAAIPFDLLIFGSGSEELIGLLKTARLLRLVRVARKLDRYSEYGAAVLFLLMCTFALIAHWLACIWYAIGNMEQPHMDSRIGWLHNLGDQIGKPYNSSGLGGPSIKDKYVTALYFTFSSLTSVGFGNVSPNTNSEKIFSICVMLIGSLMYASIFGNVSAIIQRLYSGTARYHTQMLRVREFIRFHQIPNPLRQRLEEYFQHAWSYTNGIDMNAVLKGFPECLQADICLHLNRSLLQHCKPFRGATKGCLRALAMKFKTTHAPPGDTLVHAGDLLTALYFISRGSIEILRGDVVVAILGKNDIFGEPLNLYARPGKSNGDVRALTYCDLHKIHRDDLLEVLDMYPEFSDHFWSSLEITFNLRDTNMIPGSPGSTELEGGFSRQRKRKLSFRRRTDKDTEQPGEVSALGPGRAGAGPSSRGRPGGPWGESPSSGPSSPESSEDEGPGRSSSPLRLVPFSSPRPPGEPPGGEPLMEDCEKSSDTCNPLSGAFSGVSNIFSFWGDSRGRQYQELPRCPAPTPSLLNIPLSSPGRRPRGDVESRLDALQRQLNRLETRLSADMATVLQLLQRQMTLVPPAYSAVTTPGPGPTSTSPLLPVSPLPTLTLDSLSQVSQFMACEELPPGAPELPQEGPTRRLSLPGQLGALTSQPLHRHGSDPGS
MEASURED METRIC: inhibition at 10 µM (%)
I only need the number, in %, no unit after it.

In: inhibition at 10 µM lookup needed for CN1C2CCC1CN([C@H]1CC[C@@H](n3nc(-c4ccc(Oc5ccccc5)cc4)c4c(N)ncnc43)CC1)C2 , thanks.
Out: 99

In: inhibition at 10 µM lookup needed for Nc1ncnc2c1c(-c1ccc(Oc3ccccc3)cc1)cn2[C@H]1CC[C@H](NCc2ccncc2)CC1 , thanks.
Out: 93

In: inhibition at 10 µM lookup needed for COc1cc(-c2nn([C@H]3CC[C@H](N4CCn5c(C)nnc5C4)CC3)c3ncnc(N)c23)ccc1NC(=O)c1cc2ccccc2n1C , thanks.
Out: 17.1

In: inhibition at 10 µM lookup needed for CN1CCN([C@H]2CC[C@H](n3cc(-c4ccc(NC(=O)CCc5ccccc5)cc4)c4c(N)ncnc43)CC2)CC1 , thanks.
Out: 53

In: inhibition at 10 µM lookup needed for CN1C2CCC1CN([C@H]1CC[C@H](n3nc(-c4ccc(NC(=O)c5cc6ccccc6n5C)cc4)c4c(N)ncnc43)CC1)C2 , thanks.
Out: 64

In: inhibition at 10 µM lookup needed for Nc1ncnc2c1c(-c1ccc(Oc3ccccc3)cc1)cn2[C@H]1CC[C@H](N2CCN(CCO)CC2)CC1 , thanks.
Out: 93

In: inhibition at 10 µM lookup needed for COc1cc(-c2cn([C@H]3CC[C@H](N4CCN(C)CC4)CC3)c3ncnc(N)c23)ccc1NC(=O)c1cc2ccccc2n1C , thanks.
Out: 39.3

----------
molecular target: FLT3-ITD (Homo sapiens, UniProt P36888, ITD); test: FLT3-ITD kinase inhibition
Sequence (P36888 27-993, change not shown): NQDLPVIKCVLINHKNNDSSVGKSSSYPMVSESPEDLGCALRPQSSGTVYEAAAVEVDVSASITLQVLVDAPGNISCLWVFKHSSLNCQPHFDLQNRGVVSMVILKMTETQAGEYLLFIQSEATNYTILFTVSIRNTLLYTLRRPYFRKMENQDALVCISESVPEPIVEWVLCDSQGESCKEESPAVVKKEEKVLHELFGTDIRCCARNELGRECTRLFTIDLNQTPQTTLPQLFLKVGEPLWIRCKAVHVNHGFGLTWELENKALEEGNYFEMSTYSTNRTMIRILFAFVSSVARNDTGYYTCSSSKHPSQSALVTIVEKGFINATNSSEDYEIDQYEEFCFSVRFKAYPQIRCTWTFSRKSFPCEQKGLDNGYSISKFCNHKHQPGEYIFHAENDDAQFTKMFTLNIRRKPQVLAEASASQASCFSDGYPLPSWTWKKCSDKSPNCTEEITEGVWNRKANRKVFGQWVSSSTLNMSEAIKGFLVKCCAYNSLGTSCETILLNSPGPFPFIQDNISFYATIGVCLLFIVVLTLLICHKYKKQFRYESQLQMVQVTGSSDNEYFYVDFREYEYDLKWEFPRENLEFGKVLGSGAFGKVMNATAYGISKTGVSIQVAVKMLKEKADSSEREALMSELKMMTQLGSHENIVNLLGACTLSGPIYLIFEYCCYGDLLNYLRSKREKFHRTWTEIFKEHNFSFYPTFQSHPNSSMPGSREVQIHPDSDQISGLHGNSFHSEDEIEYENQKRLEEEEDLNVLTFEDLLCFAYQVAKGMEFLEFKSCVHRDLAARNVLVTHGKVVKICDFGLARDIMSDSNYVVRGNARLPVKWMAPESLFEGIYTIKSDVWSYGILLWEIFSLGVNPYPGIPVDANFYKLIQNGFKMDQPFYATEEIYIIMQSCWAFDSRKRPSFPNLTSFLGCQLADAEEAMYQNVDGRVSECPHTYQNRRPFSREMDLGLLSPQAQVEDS
Assign IC50 to each entry below.
I only need the number, in nM, no unit after it.

In: IC50 lookup needed for Nc1ncnc2c1c(-c1ccc(Oc3ccccc3)cc1)cn2[C@H]1CC[C@H](NCc2ccncc2)CC1 , thanks.
Out: 15

In: IC50 lookup needed for Nc1ncnc2c1c(-c1ccc(Oc3ccccc3)cc1)nn2[C@H]1CC[C@H](NC(=O)c2cccnc2)CC1 , thanks.
Out: 190

In: IC50 lookup needed for COc1cc(-c2nn([C@H]3CC[C@H](N4CCn5c(C)nnc5C4)CC3)c3ncnc(N)c23)ccc1NC(=O)c1cc2ccccc2n1C , thanks.
Out: 1340

In: IC50 lookup needed for NC(=O)CN[C@H]1CC[C@H](n2cc(-c3ccc(Oc4ccccc4)cc3)c3c(N)ncnc32)CC1 , thanks.
Out: 23
